Target: T1, IgG-Fc (UniProt P01857-1 108-330 = IgG part, limits assumed)
T1 construct: domain: IgG-Fc; also called biotinylated-IgG-Fc; biotin-IgG-Fc
Assay: phage ELISA, M13/gIII display
pEC50: −log10 of the molar value.
measured_quantity: pEC50

> print(dat)
                                     binder  endpoint.result
1  DLADCSYWLGELVWCSRVEG (M13/gIII phage display; Focused Libraries) [phage clone DLADCSYWLGELVWCSRVEG]             6.11
2  GEEDCAWHLGELVWCTDVED (M13/gIII phage display; Secondary Optimization) [phage clone GEEDCAWHLGELVWCTDVED]             7.28
3  GEPDCAWHLGELVWCTPMVF (M13/gIII phage display; Secondary Optimization) [phage clone GEPDCAWHLGELVWCTPMVF]             8.15

These entries and their values trace back to patent US20040253247A1.
